Subject Of Test: A156T mutant of the HCV NS3/4A 1b protease enzyme (Hepatitis C virus genotype 1b, UniProt P26663, A1182T)
Construct: 10× stocks of NS3/4A protease enzyme from Bioenza (Mountain View, Calif.); purchased Bioenza (Mountain View, Calif.)
Assay: HCV Protease FRET Assay (IC50), A156T mutant
Format: biochemical
Run Conditions: read-out: Comparative IC50 Values, A156T; biochemical assay
Assay Metric: IC50 (nM)

INSERT INTO assay_data (smiles_notation, assay_metric, result_units, observed_result) VALUES
  ('C=CC(=O)NC[C@H](NC(=O)OC(C)(C)C)C(=O)N1C[C@H](Oc2cc(-c3ccccc3)nc3cc(OC)ccc23)C[C@H]1C(=O)N[C@]1(C(=O)NS(=O)(=O)c2ccccc2)C[C@H]1C=C', 'IC50', 'nM', 18);
